# targetEntity: Muscarinic acetylcholine receptor M1 (Homo sapiens) (UniProt P11229)
# Sequence (P11229 whole entry, looked up): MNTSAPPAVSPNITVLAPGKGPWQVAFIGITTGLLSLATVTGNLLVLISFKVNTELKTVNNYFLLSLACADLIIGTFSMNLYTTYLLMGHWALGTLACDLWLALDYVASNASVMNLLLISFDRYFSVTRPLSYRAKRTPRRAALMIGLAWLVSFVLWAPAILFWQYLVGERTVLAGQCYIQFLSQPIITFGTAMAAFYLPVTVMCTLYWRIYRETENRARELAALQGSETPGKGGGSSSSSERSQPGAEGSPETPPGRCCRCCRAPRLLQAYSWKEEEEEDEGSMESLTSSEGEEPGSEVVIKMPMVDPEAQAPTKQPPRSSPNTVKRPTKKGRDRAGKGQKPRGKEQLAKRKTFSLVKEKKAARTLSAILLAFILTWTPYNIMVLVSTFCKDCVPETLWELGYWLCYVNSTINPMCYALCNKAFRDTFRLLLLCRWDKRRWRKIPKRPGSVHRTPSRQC
# assay: Cholinergic receptor muscarinic 1 (CHRM1) small molecule antagonists, cell-based qHTS assay (AID 1963588); also: nearly all actives have a fitted effect of over 40% in size
# protocolConditions: CHRM1-CHO antagonist mode, calcium flux fluorescence; series mostly up to 61.5 µM
Inconclusive results are not listed. Active and inactive are the calls of the source. Calls follow the shape of the full dose curve.
Please answer using one outcome listed in Y (active), N (inactive)

Sample answers from the record:
> print(dat)
                                   compound  label
1    c1cc[c]([Bi]([c]2ccccc2)[c]2ccccc2)cc1      N
2                 CCCCCCCCn1sc(Cl)c(Cl)c1=O      N
3                O=[N+]([O-])c1cccc(Cl)c1Cl      N
4  CCCCCC1Nc2cc(C(F)(F)F)c(S(N)(=O)=O)cc2S(=O)(=O)N1 (stereo not given)      N
5                C=C1CC[C@H]2C[C@@H]1C2(C)C      N
6  CCO[C@H](Cc1ccc(OCCc2ccc(OS(C)(=O)=O)cc2)cc1)C(=O)O      N

Input: # fetch the recorded call for COc1ccc(CCO)cc1 here
Output: N

Input: # fetch the recorded call for C=C(C)C(=O)OCCOCCOC(=O)C(=C)C here
Output: N

* * *

# assay: p53 small molecule agonists, cell-based qHTS assay with human liver microsomes: qHTS cell viability counter screen (AID 1963579); also: nearly all actives have a fitted effect of over 45% in size
# protocolConditions: p53RE-bla HCT-116 viability, ATP luminescence, 16 h, HLM; series mostly up to 66 µM
Records with an inconclusive call do not appear. Activity calls are given as the source filed them. The call rests on the fitted dose curve.
Please answer using one outcome listed in active, inactive

Sample answers from the record:
> print(dat)
                                   compound     label
1  COc1cc(C(=O)NC2CCN(C)CC2)ccc1Nc1ncc2c(n1)N(C1CCCC1)CC(F)(F)C(=O)N2C    active
2                             CCCCCCCCCCC=O  inactive
3                  CC(=O)CCC1=C(C)CCCC1(C)C  inactive

Input: # fetch the recorded call for Nc1nc(Cl)nc2c1ncn2[C@H]1C[C@H](O)[C@@H](CO)O1 here
Output: inactive

Input: # fetch the recorded call for C[C@H](CCC(=O)O)[C@H]1CC[C@H]2[C@@H]3CC[C@@H]4C[C@H](O)CC[C@]4(C)[C@H]3CC[C@]12C here
Output: inactive

* * *

# assay: Nuclear factor erythroid 2-related factor 2/antioxidant responsive element (Nrf2/ARE) small molecule agonists: qHTS cell viability counter screen in human keratinocytes (AID 1919968); also: nearly all actives have a fitted effect of over 55% in size
# protocolConditions: KeratinoSens HaCaT ARE cells viability, CellTiter-Fluor, 24 h; series mostly up to 92.4 µM
Records with an inconclusive call do not appear. Active and inactive are the calls of the source. Calls come from the whole dose curve; as a rule, active = well fitted cell-killing curve with a large enough effect in the repeat runs; inconclusive = weak or mixed curves, or effect the other way; inactive = flat fitted curve, though single readings scatter.
measure: outcome

> print(dat)
                              smilesrecord  reported
1                               CC(C)(C)Cl  inactive
2                            O=S1(=O)CCCC1  inactive
3                         CC/C=C\CC/C=C/CO  inactive
4                              OCCN1CCOCC1  inactive
5  CCC(=O)c1ccc2c(c1)N(CCCN(C)C)c1ccccc1S2  inactive

Entry CC(=O)Oc1ccc2c(c1)CC[C@@H]1[C@@H]2CC[C@]2(C)[C@@H](O)CC[C@@H]12 — recorded outcome = inactive

Entry Clc1ccc2cc3ccccc3cc2c1 — recorded outcome = inactive

* * *

# targetEntity: Beta-2 adrenergic receptor (Homo sapiens)
# assay: Adrenergic beta2 receptor (ADRB2) small molecule antagonists, cell-based qHTS assay (AID 1963592); also: nearly all actives have a fitted effect of over 50% in size
# protocolConditions: CHO-ADRB2 cells, isoproterenol-stimulated cAMP HTRF ratio, 0.5 h; series mostly up to 92.4 µM
# Description: U.S. Tox21 Program National Center for Advancing Translational Sciences [NCATS] Division of Preclinical Innovation [DPI] U.S. Environmental Protection Agency [EPA] National Institutes of Environmental Health Sciences [NIEHS] National Toxicology Program [NTP] U.S. Food and Drug Administration [FDA] […] The principle of cAMP-Gs dynamic assay is based on HTRF technology, which facilitates the fluorescence resonance energy transfer (FRET) between donor Europium cryptate and acceptor d2-labeled cAMP. […]
Records with an inconclusive call do not appear. Calls of active or inactive are those of the source. The call rests on the fitted dose curve.
Please answer using one outcome listed in y (active), n (inactive)

Sample answers from the record:
> print(dat)
                                   compound                              targetentity  label
1                     CC(C)N(c1ccccc1)C(C)C  Beta-2 adrenergic receptor (Homo sapiens)      n
2   O=S(c1cc(Cl)cc(Cl)c1O)c1cc(Cl)cc(Cl)c1O  Beta-2 adrenergic receptor (Homo sapiens)      n
3                                  SC1CCCC1  Beta-2 adrenergic receptor (Homo sapiens)      n
4                         CCCn1cc[n+](C)c1C  Beta-2 adrenergic receptor (Homo sapiens)      n
5  O=C(O)CCn1c2c(c3ccccc31)C[C@H](NS(=O)(=O)c1ccc(F)cc1)CC2  Beta-2 adrenergic receptor (Homo sapiens)      n

Could you now look at the following compound, please?
Input: # fetch the recorded call for C[C@H]1[C@H](NC(=O)/C(=N/OC(C)(C)C(=O)O)c2csc(N)n2)C(=O)N1S(=O)(=O)O (stereo in doubt) here
Output: n

* * *

# assay: p53 small molecule agonists, cell-based qHTS assay with human liver microsomes: qHTS cell viability counter screen (AID 1963579); also: nearly all actives have a fitted effect of over 45% in size
# protocolConditions: p53RE-bla HCT-116 viability, ATP luminescence, 16 h, HLM; series mostly up to 66 µM
Records with an inconclusive call do not appear. Activity calls are given as the source filed them. The call rests on the fitted dose curve.
Please answer using one outcome listed in active, inactive

> print(dat)
                                   compound     label
1  C/C=C1/C(=O)C[C@H]2[C@@H]3CCC4=CC(=O)CC[C@]4(C)[C@H]3CC[C@]12C  inactive

Input: # fetch the recorded call for C[C@@H](CN(C)C)CN1c2ccccc2Sc2ccccc21 here
Output: inactive

Input: # fetch the recorded call for CO/N=C(/C(=O)N[C@@H]1C(=O)N2C(C(=O)OCOC(=O)C(C)(C)C)=C(C)CS[C@H]12)c1csc(N)n1 here
Output: inactive

Input: # fetch the recorded call for Cc1ccc(Cl)c(N)c1Cl here
Output: active

Input: # fetch the recorded call for COC(=O)C1=C(C)NC(C)=C(C(=O)OC(C)C)C1c1cccc2nonc12 (stereo not given) here
Output: inactive

* * *

# assay: Nuclear factor erythroid 2-related factor 2/antioxidant responsive element (Nrf2/ARE) small molecule agonists: luciferase reporter gene qHTS assay in human keratinocytes (AID 1919969); also: nearly all actives have a fitted effect of over 35% in size
# protocolConditions: KeratinoSens HaCaT ARE-luciferase, luminescence, 24 h; series mostly up to 92.4 µM
Records with an inconclusive call do not appear. The source made the active and inactive calls. Calls come from the whole dose curve.
measure: outcome

> print(dat)
                               smilesrecord  measure  reported
1                                O=C(O)CCCl  outcome  inactive
2            O=S(=O)(Oc1ccc(Cl)cc1)c1ccccc1  outcome  inactive
3  CC(=O)OCC(=O)[C@@]1(O)[C@H](OC(C)=O)C[C@H]2[C@@H]3CCC4=CC(=O)C=C[C@]4(C)[C@@]3(F)[C@@H](O)C[C@@]21C  outcome  inactive

* * *

# assay: Nuclear factor erythroid 2-related factor 2/antioxidant responsive element (Nrf2/ARE) small molecule agonists: qHTS cell viability counter screen in human keratinocytes (AID 1919968); also: nearly all actives have a fitted effect of over 55% in size
# protocolConditions: KeratinoSens HaCaT ARE cells viability, CellTiter-Fluor, 24 h; series mostly up to 92.4 µM
Inconclusive results are not listed. Calls of active or inactive are those of the source. Calls come from the whole dose curve; as a rule, active = well fitted cell-killing curve with a large enough effect in the repeat runs; inconclusive = weak or mixed curves, or effect the other way; inactive = flat fitted curve, though single readings scatter.
Please answer using one outcome listed in yes = active, no = inactive

compound	label
COc1cccc2c1C(=O)c1c(O)c3c(c(O)c1C2=O)C[C@@](O)(C(=O)CO)C[C@@H]3O[C@H]1C[C@H](N)[C@H](O[C@@H]2CCCCO2)[C@H](C)O1	yes

Input: # fetch the recorded call for Clc1cc(Cl)c2c(c1)N=C1CCCCCN1C2 here
Output: no

Input: # fetch the recorded call for CCCCCC/C=C\CCCCCCCC(=O)O here
Output: no

Input: # fetch the recorded call for CC(C)NCC(O)c1cc(O)cc(O)c1 (stereo not drawn) here
Output: no

Input: # fetch the recorded call for S=c1nccc[nH]1 here
Output: no

Input: # fetch the recorded call for COC(=O)[C@]1(C)CCC[C@@]2(C)[C@H]1CC=C1C=C(C(C)C)CC[C@@H]12 here
Output: no

Input: # fetch the recorded call for C1=CC2C3C=CC(C3)C2C1 (stereo not drawn) here
Output: no

Input: # fetch the recorded call for OCCc1ccncc1 here
Output: no
